Recorded IC50, one value per entry.
SYSTEM_TESTED: PD-1/PD-L1 interaction (PD-1-Ig / PD-L1-His) (Homo sapiens)
Construct: hPDL1(18-239)-TVMV-His; TVMV protease site linker (C); made in house; host or cells: HEK293T
PROTOCOL_TEXT: PD-1/PD-L1 Homogenous Time-Resolved Fluorescence (HTRF) binding assay
CONDITION_SUMMARY: IC50 range class; PD-L1-His 10 nM, PD-1-Ig 20 nM; read-out: Range or IC50

[[record]]
compound = "Cc1c(COc2cc(OCc3cncc(C#N)c3)c(CO)cc2Cl)cccc1-c1cccc(COc2cc(OCc3cncc(C#N)c3)c(CN[C@H](C(=O)O)[C@@H](C)[C@H](C)O)cc2Cl)c1C [Example 50340]"
measured_parameter = "IC50"
endpoint_result = "0.04 to 20 nM"


Short answer on PD-1/PD-L1 interaction (PD-1-Ig / PD-L1-His) (Homo sapiens) for Cc1c(COc2cc(OCc3cncc(C#N)c3)c(Cl)cc2Cl)cccc1-c1cccc(COc2cc(OCc3cncc(C#N)c3)c(CN[C@@](C)(CO)C(=O)O)cc2Cl)c1C [Example 70060] , IC50: 20.1 to 90 nM

Item Cc1c(OCCCN2CC(N(C)C)C2)cccc1-c1cccc(OCCCN2CC(N(C)C)C2)c1C [Example 2087] was tested on PD-1/PD-L1 interaction (PD-1-Ig / PD-L1-His) (Homo sapiens); the reported IC50 is 90.1 to 1000 nM

* * *

Measured IC50 by item
SYSTEM_TESTED: PD-1/PD-L1 interaction (PD-1-Ig / PD-L1-His) (Homo sapiens, UniProt Q9NZQ7)
Construct: hPDL1(18-239)-TVMV-His; TVMV protease site linker (C); made in house; host or cells: HEK293T
Sequence (Q9NZQ7 with tags, fused parts or gaps): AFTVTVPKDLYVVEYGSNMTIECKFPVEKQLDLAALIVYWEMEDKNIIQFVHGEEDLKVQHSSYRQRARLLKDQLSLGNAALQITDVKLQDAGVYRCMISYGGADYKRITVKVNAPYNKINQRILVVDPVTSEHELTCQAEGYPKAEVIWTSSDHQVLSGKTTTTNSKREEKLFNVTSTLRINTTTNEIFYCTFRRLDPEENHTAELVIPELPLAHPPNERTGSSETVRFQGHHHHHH
PROTOCOL_TEXT: PD-1/PD-L1 Homogenous Time-Resolved Fluorescence (HTRF) binding assay
CONDITION_SUMMARY: IC50 range class; PD-L1-His 10 nM, PD-1-Ig 20 nM; read-out: Range or IC50

Sample Cc1cc(OCc2cccc(-c3cccc(COc4cc(C)c(CNC(CO)CO)cc4C)c3C)c2C)c(C)cc1CNC(CO)CO ; IC50 observed: 0.04 to 20 nM

* * *

Overview of recorded pIC50 for various compounds
SYSTEM_TESTED: PD-1/PD-L1 interaction (PD-1-Ig / PD-L1-His) (Homo sapiens, UniProt Q9NZQ7)
Construct: hPDL1(18-239)-TVMV-His; TVMV protease site linker (C); made in house; host or cells: HEK293T
PROTOCOL_TEXT: PD-1/PD-L1 Homogenous Time-Resolved Fluorescence (HTRF) binding assay
CONDITION_SUMMARY: IC50 range class; PD-L1-His 10 nM, PD-1-Ig 20 nM; read-out: Range or IC50
pIC50: −log10 of the molar value.

[[record]]
compound = "Cc1c(COc2cc(OCc3ccc(-n4cccn4)nc3)c(CN(C)[C@@H](CCO)C(=O)O)cc2Cl)cccc1-c1cccc(COc2cc(OCc3ccc(-n4cccn4)nc3)c(CN(C)[C@@H](CCO)C(=O)O)cc2Cl)c1C"
measured_parameter = "pIC50"
endpoint_result = "7.70 to 10.40"

[[record]]
compound = "Cc1c(OCCCN(C)CCCN(C)CCCOc2cccc(-c3cccc(OCCCN4CC[C@@H](O)C4)c3C)c2C)cccc1-c1cccc(OCCCN2CC[C@@H](O)C2)c1C"
measured_parameter = "pIC50"
endpoint_result = "7.05 to 7.70"

[[record]]
compound = "CC(CO)(NCc1cc(Cl)c(OCc2cccc(-c3cccc(COc4cc(OCc5cncc(C#N)c5)c(CO)cc4Cl)c3Cl)c2Cl)cc1OCc1cncc(C#N)c1)C(=O)O (centres unmarked)"
measured_parameter = "pIC50"
endpoint_result = "7.70 to 10.40"


Note to self: pIC50 recorded for Cc1c(COc2cc(OCc3cncc(C#N)c3)c(CN3CCC[C@H]3C(=O)O)cc2Cl)cccc1-c1cccc(COc2cc(OCc3cncc(C#N)c3)c(CN3CCC[C@H]3C(=O)O)cc2Cl)c1C was 7.70 to 10.40

Item: Cc1c(COc2cc(OCc3cncc(C#N)c3)c(CNC(C(=O)O)C(C)C)cc2Cl)cccc1-c1cccc(COc2cc(OCc3cncc(C#N)c3)c(CNC(C(=O)O)C(C)C)cc2Cl)c1C (centres unmarked) | pIC50: 7.70 to 10.40
